# experimentalSystem: T1, RSV F ectodomain stabilized in the postfusion conformation (F ΔFP), subtype A (Respiratory syncytial virus subtype A, UniProt P03420 26-109; P03420 147-524)
# T1 construct: extracellular domain; trimer; furin-cleaved; also called Postfusion subtype A
# protocol: BLI, IgG on AHQ sensor, 100 nM antigen
endpoint: pKd
Recall that pKd is obtained by taking minus log10 of the concentration measured in molar.

ADI-14449 (antibody, V domains shown, full-length IgG (yeast-expressed); also called Antibody Number 12; Ab# 12) VH: EVQLVESGGDLVKPGGSLRLSCEGSGFIFPNAWMSWVRQAPGKGLEWVGRIKSNTDGGTTDYGAPVKGRFTISRDDSTNTMYLHMNSLKTEDTAVYFCSTGPPYKYFDETGYSVVDYWGQGTLVTVSS VL: SYELTQPPSASGTPGQRVIISCSGSTSNSGYNYFYWYQQRPGTAPKLLIYGSDQRPSGVPDRFSGSQSGPSASLAISGLRSEDEAHYYCAAWDDNLSGPVFGGGTKLTVL ... 9.69

In the following, a different binder is considered.
Output measured pKd for this item: ADI-14497 (antibody, V domains shown, full-length IgG (yeast-expressed); also called Antibody Number 58; Ab# 58) VH: QITLKESGPTLVKPTQTLTLTCTFSGFSLTTRGVGVGWIRQPPGKALEFLGFIHWDDDKTYSPSLRRRLTITKDTSNNEVVLTMTNMDPVDTATYYCVHSDLYDSGGYYLYYFDYWGQGTLVTVSS VL: EIVMTQSPSSLSASVGDRVTITCRASQPIPSYVNWYQQRPGKAPKLLIYAASNLQSGVSSKFSGRGFGTDFTLTIDTLQPEDFATYYCQQVYTSPYTFGQGTKLEIK
9.45

Every entry's value here was drawn from patent US20250313612A1.
